Values compiled from PubChem BioAssay (NCI).

# Test system: UACC-62 melanoma
# testProtocol: NCI tumour cell line growth inhibition, 48 h
TGI for assorted compounds

[
  {
    "compound": "CCNCC(O)c1ccc(N)c([N+](=O)[O-])c1 (stereo not given)",
    "observedMeasurement": "> 100 µM"
  },
  {
    "compound": "COc1cc2c(cc1OC)CCN=C2",
    "observedMeasurement": "> 100 µM"
  },
  {
    "compound": "C[Se]C(=O)CC1=C2C=C(F)C=CC2/C(=C\\c2ccc(S(C)=O)cc2)C1C (stereo not given)",
    "observedMeasurement": "2.3 µM"
  },
  {
    "compound": "Oc1ccc2ccccc2c1N=Nc1ccccc1",
    "observedMeasurement": "> 100 µM"
  },
  {
    "compound": "COc1cc([C@H]2Oc3c(c(O)cc4oc(-c5ccccc5)cc(=O)c34)O[C@@H]2CO)ccc1O",
    "observedMeasurement": "> 100 µM"
  },
  {
    "compound": "CN1C[C@@H]2CCCN2P1Oc1cccc2cccnc12 (stereo not given in full)",
    "observedMeasurement": "> 100 µM"
  },
  {
    "compound": "COc1ccc2c(c1)CC[C@@H]1C2CC[C@]2(C)C(=O)NC(=O)CC12 (stereo not given in full)",
    "observedMeasurement": "> 100 µM"
  },
  {
    "compound": "C[C@H]1[C@@H](OCC(CO[C@H]2O[C@@H]3O[C@@]4(C)CC[C@H]5[C@H](C)CC[C@@H]([C@H]2C)[C@@]35OO4)=NOCC(=O)O)OC2O[C@@]3(C)CC[C@H]4[C@H](C)CC[C@@H]1[C@@]24OO3 (stereo not given in full)",
    "observedMeasurement": "15.5 µM"
  }
]

Task item: Using the record for `CCc1cccc(C)c1NC(=O)NS(=O)(=O)c1ccc(C)cc1` , report its TGI.
Reply: > 100 µM

Task item: Using the record for `CCS/C(Nc1ccccc1)=C(\C#N)C(=O)Nc1ccc(OC)cc1` , report its TGI.
Reply: > 100 µM

Task item: Using the record for `CC1(C)CCc2c(c(N=Nc3ccccc3)c3ccccc3c2O)O1` , report its TGI.
Reply: > 100 µM

Task item: Using the record for C[Si](C)(C)/C=C/CN1C(=O)CCC1O (stereo not given) , report its TGI.
Reply: > 100 µM

Task item: Using the record for `CC#CC(=O)N1CCC[C@H]1c1nc(-c2ccc(C(=O)Nc3ccccn3)cc2)c2c(N)nccn12` , report its TGI.
Reply: > 100 µM

Task item: Using the record for C=C1C(C)C2C(Cc3ccccc3)NC(=O)C23C(OC(C)=O)/C=C/C(C)(O)CC(C)C/C=C/C3C1O (stereo not given) , report its TGI.
Reply: > 91.8 µM

Task item: Using the record for `Cn1c(=O)c2[nH]c(COc3ccc(C(C)(C)C)cc3)nc2n(C)c1=O` , report its TGI.
Reply: 72.4 µM

====

# Tested on: K-562 leukemia
# testProtocol: NCI tumour cell line growth inhibition, 48 h
endpointLabel: TGI

Below, 4 molecules whose answers are already recorded.
[
  {
    "molecule": "COC(=O)C1=C(C(=O)OC)C2(C(=O)OC)OC1(OC)C(C1(C(=O)OC)C(C(=O)OC)=C1C(=O)OC)=C2C(=O)OC (stereo unspecified)",
    "observedMeasurement": "> 100 µM"
  },
  {
    "molecule": "COc1nc(=O)n(C2CC(N=[N+]=[N-])C(CO)O2)cc1C (stereo unspecified)",
    "observedMeasurement": "> 100 µM"
  },
  {
    "molecule": "CC(Cc1ccc(O)c(O)c1)C(C)Cc1ccc(O)c(O)c1 (stereo unspecified)",
    "observedMeasurement": "> 62.7 µM"
  },
  {
    "molecule": "COC(=O)CCCCC/C(=C\\C(=O)C(Cl)(Cl)Cl)OC",
    "observedMeasurement": "> 100 µM"
  }
]

Task item: Using the record for `Cc1nc(-c2nc([N+](=O)[O-])c([N+](=O)[O-])[nH]2)cs1` , report its TGI.
Reply: > 100 µM

Task item: Using the record for O=C(O)CCC1(c2ccccc2)NC(=O)NC1=O (stereo unspecified) , report its TGI.
Reply: > 100 µM
